- System: NLRP3
- MEASUREMENT PROTOCOL: IL-1β secretion assay in PMA-differentiated, LPS/nigericin-stimulated THP-1 cells (384-well, ELISA read-out)
- Assay type: cell-based, human
- COND: Homo sapiens, THP-1, Table 4; IL-1β secretion, LPS/nigericin-stimulated THP-1 cells; read-out: IC50
Measured IC50 accompanies every entry in the list below.
Report the figure in nM without appending any unit label.

Consider the following illustrative entries.
• O=C(CN1CC2(CC2)c2cc(Br)ccc2C1=O)Nc1ccc(Cl)cn1 = 516
• Cc1cnc(NC(=O)CN2C[C@@]3(C[C@@H]3F)c3c(ccc(Br)c3F)C2=O)nc1 (single isomer, unassigned) = 19
• Cn1ccnc(NC(=O)CN2CC3(CC3)c3cc(Br)ccc3C2=O)c1=O = 1320
• O=C(CN1CC2(CC23CC3)c2cc(Br)ccc2C1=O)Nc1ncc(F)cn1 (centres unmarked) = 2560
• N#Cc1ccc(NC(=O)CN2CC3(CC3)c3cc(Br)ccc3C2=O)cn1 = 1260
• O=C(CN1CC2(CC2)c2cc(Br)ccc2C1=O)Nc1cc(C2CC2)n[nH]1 = 2830
• N#CC12CC(NC(=O)CN3CC4(CC4)c4cc(Br)ccc4C3=O)(C1)C2 = 3120

From here, focus on the item given below.
Give NLRP3 IC50 for the following molecule: `O=C(CN1CC2(CC2)c2cc(Br)ccc2C1=O)NC12CCC(O)(CC1)CC2` 5920

###

- Tested on: NLRP3
- MEASUREMENT PROTOCOL: IL-1β secretion assay in PMA-differentiated, LPS/nigericin-stimulated THP-1 cells (384-well, ELISA read-out)
- Format: cell-based, human
- COND: Homo sapiens, THP-1, Table 4; IL-1β secretion, LPS/nigericin-stimulated THP-1 cells; read-out: IC50
// thresholds for IC50 classes: low range (below 0.7 µM), mid range (0.7 µM to below 8 µM), high range (8 µM or more)

Recorded results for 5 compounds are shown here.
- O=C(CN1CC2(CC2)c2nc(C(F)(F)F)ccc2C1=O)Nc1ncccn1: mid range
- N#Cc1c(C(F)(F)F)ccc2c1C1(CC1)CN(CC(=O)Nc1ncc(F)cn1)C2=O: mid range
- O=C(CN1CC2(CC2)c2cc(Br)ccc2C1=O)Nc1nnc2ccccc2n1: mid range
- O=C(CN1C[C@]2(C[C@H]2F)c2cc(Br)ccc2C1=O)Nc1nc2ccccn2n1: low range
- CS(=O)(=O)NCCNC(=O)CN1CC2(CC2)c2cc(Br)ccc2C1=O: high range

Band for the recorded IC50 of `O=C(CN1CC2(CC2)c2cc(Br)ccc2C1=O)Nc1nc2ccccn2c1F` ? mid range

Lab note: which band did `O=C(CN1CC2(CC2)c2c(ccc(Br)c2F)C1=O)Nc1ncccn1` land in? low range

Please report the category associated with `O=C(CN1CC2(CC2)c2cc(Br)ccc2C1=O)NCc1cccnc1C(F)(F)F` , nothing else. high range

###

Listing of recorded IC50 by entry.
- System: NLRP3
- MEASUREMENT PROTOCOL: IL-1β secretion assay in PMA-differentiated, LPS/nigericin-stimulated THP-1 cells (384-well, ELISA read-out)
- Type: cell-based, human
- COND: Homo sapiens, THP-1, Table 4; IL-1β secretion, LPS/nigericin-stimulated THP-1 cells; read-out: IC50
Answer with a number only, understood to be in nM.

Solved entries:
* CC1(C)COC(NC(=O)CN2CC3(CC3)c3cc(Br)ccc3C2=O)=N1 | 18000
* O=C(CN1CC2(CC2)c2cc(Br)ccc2C1=O)Nc1ncc2c(n1)COCC2 | 1020
* Cc1cc(C)nc(NC(=O)CN2CC3(CC3)c3cc(Br)ccc3C2=O)c1 | 2100
* CC1CN(CC(=O)NC2CC(C)(O)C2)C(=O)c2ccc(Br)cc21 (stereo not drawn) | 643
* O=C(CN1CC2(CC2)c2cc(Br)ccc2C1=O)Nc1ncn(C2CC2)n1 | 3080

Return IC50 (reported value) for this compound: `O=C(CN1CC2(CC2)c2cc(Br)ccc2C1=O)N1Cc2cccnc2C1` 26700

Provide IC50 value for the following compound: O=C(CN1CC(C(F)(F)F)c2cc(I)ccc2C1=O)Nc1ncc(F)cn1 (stereo not drawn) 27

Return reported IC50. Input compound: `O=C(CN1CC2(CC2)c2cc(Br)ccc2C1=O)Nc1nc2c(o1)CCCC2` 1450

Report measured IC50; entry is `Cn1cnc(NC(=O)CN2CC3(CC3)c3cc(Br)ccc3C2=O)n1` 1460
